Attribution: patent US8877932B2

- Assay Method Text: Intrinsic dissolution (Woods apparatus)
- Format: physicochemical
- Experimental Setup: HCl buffer, pH 1.8, 1% sodium lauryl sulfate, 37° C., 50 rpm
Attribute Measured: dissolution rate (mg/min/cm^2)
Expressed in mg/min/cm^2, but write only the number.

// field: dissolution rate; key: Nc1cccc2c1CN(C1CCC(=O)NC1=O)C2=O (centres unmarked) [Form-B, reference compound] ; value = 0.250

The compound listed as Nc1cccc2c1CN(C1CCC(=O)NC1=O)C2=O (centres unmarked) [Form-I] has a reported dissolution rate of 0.421
